- ASSAY PROTOCOL: in vivo
- EXPERIMENTAL CONTEXT: male, Sprague-Dawley, rat, iv, 250 ug, Lung T½
READOUT NAME: half-life
Units required after the number.

State its half-life for this compound: CC1=C(/C=C/C(C)=C/C=C/C(C)=C/C(=O)O)C(C)(C)CCC1 [all-trans retinoic acid] 1.9 h

* * *

- ASSAY PROTOCOL: Tissue/plasma concentrations after intra-tracheal instillation (HPLC)
- Assay type: in vivo, Sprague-Dawley rats
- EXPERIMENTAL CONTEXT: Sprague-Dawley, right lung, other: intra-tracheal instillation; rat, 100 μg intra-tracheal instillation, 6 hours; read-out: Right Lung concentration
READOUT NAME: concentration at 6 hours (ng/g)
Numbers only, in ng/g.

State its concentration at 6 hours for this compound: CC1=C(/C=C/C(C)=C/C=C/C(C)=C/C(=O)O)C(C)(C)CCC1 [all-trans retinoic acid] 91

* * *

- ASSAY PROTOCOL: in vivo
- EXPERIMENTAL CONTEXT: male, Sprague-Dawley, rat, 250 ug, Liver T½
READOUT NAME: half-life (min)
Give bare numbers, in min.

State its half-life for this molecule: CC1=C(/C=C/C(C)=C/C=C/C(C)=C/C(=O)O)C(C)(C)CCC1 [all-trans retinoic acid] 1320

* * *

- ASSAY PROTOCOL: in vivo
- EXPERIMENTAL CONTEXT: male, Sprague-Dawley, rat, inhaled or intranasal, 147 ug
READOUT NAME: AUC (ng·h/mL)
Answers are plain numbers, in ng·h/mL.

State its AUC for this compound: CC1=C(/C=C/C(C)=C/C=C/C(C)=C/C(=O)O)C(C)(C)CCC1 [all-trans retinoic acid] 171

* * *

- ASSAY PROTOCOL: Tissue/plasma concentrations after intra-tracheal instillation (HPLC)
- Type: in vivo, Sprague-Dawley rats
- EXPERIMENTAL CONTEXT: Sprague-Dawley, plasma, other: intra-tracheal instillation; rat, 100 μg intra-tracheal instillation, 24 hours; read-out: Plasma concentration
READOUT NAME: concentration at 24 hours (ng/mL)
Give bare numbers, in ng/mL.

State its concentration at 24 hours for this compound: CC1=C(/C=C/C(C)=C/C=C/C(C)=C/C(=O)O)C(C)(C)CCC1 [all-trans retinoic acid] 178

* * *

- ASSAY PROTOCOL: in vivo
- EXPERIMENTAL CONTEXT: male, Sprague-Dawley, rat, inhaled or intranasal, 147 ug, Lung T½
READOUT NAME: half-life
Units required after the number.

State its half-life for this molecule: CC1=C(/C=C/C(C)=C/C=C/C(C)=C/C(=O)O)C(C)(C)CCC1 [all-trans retinoic acid] 5.4 h

* * *

- ASSAY PROTOCOL: Tissue/plasma concentrations after intra-tracheal instillation (HPLC)
- Format: in vivo, Sprague-Dawley rats
- EXPERIMENTAL CONTEXT: Sprague-Dawley, left lung, other: intra-tracheal instillation; rat, 100 μg intra-tracheal instillation, 1 hour; read-out: Left Lung concentration
READOUT NAME: concentration at 1 hour (ng/g)
Give bare numbers, in ng/g.

State its concentration at 1 hour for this compound: CC1=C(/C=C/C(C)=C/C=C/C(C)=C/C(=O)O)C(C)(C)CCC1 [all-trans retinoic acid] 928
